System: SR
Experiment: NCI tumour cell line growth inhibition, 48 h
Calls of active or inactive are those of the source. Cut-off read from the data, not from the text of the source: active = GI50 up to about 1.1 µM and inactive = higher.
Please state which outcome applies, choosing from active, inactive

Record lookup: outcome of this test for CC(=O)O[C@H]1CCC(C)=CCC[C@@]2(C)C(CC[C@@H]2[C@@H](C)/C=C/C(C)C)c2ccc(cc2C(=O)O)C1 (stereo not given in full) ?
inactive

Record lookup: outcome of this test for `CCCNC(=S)N/N=C1\C(=O)Nc2ccccc21` ?
inactive

Record lookup: outcome of this test for COc1ccc(C2c3cc4c(cc3OC(N3CCOCC3)C2C)OCO4)cc1 (stereo not given) ?
inactive

Record lookup: outcome of this test for `Nc1ncn2c(n1)nc1ccccc12` ?
inactive

Record lookup: outcome of this test for `C[C@H]1C(=O)C2=C[C@H]1CCC(=O)[C@]1(C)CCCC(C)(C)[C@H]1C[C@H]2O` ?
inactive

Record lookup: outcome of this test for CC1(C)OC2C(CO)OC(n3ccc(N)nc3=O)C2O1 (stereo not given) ?
inactive

Record lookup: outcome of this test for C=CC1(NS(=O)(=O)c2ccc(C)cc2)CCC(C(C)(C)C)CC1 (stereo not given) ?
inactive

Record lookup: outcome of this test for `COc1ccc(-c2onc(-c3ccc([N+](=O)[O-])cc3)c2C2=NCCCN2)cc1` ?
inactive

Record lookup: outcome of this test for CC(C)(C)OC(=O)NC1CCCC1C(=O)C1=CCCC1 (stereo not given) ?
inactive

Record lookup: outcome of this test for `Cc1cccc2c(=O)c3c(O)cc4c(c3n(C)c12)C=CC(C)(C)O4` ?
inactive

Record lookup: outcome of this test for O=C1C2=C(CC3C(C2)C3(Br)Br)C(=O)C2=C1CC1C(C2)C1(Br)Br (stereo not given) ?
inactive

Record lookup: outcome of this test for `CNC(=S)N/N=C/c1ccc([N+](=O)[O-])s1` ?
inactive

Record lookup: outcome of this test for COC1C(O)C(O[C@H]2CC[C@@]3(C)C(CC[C@@H]4[C@@H]3CC[C@]3(C)[C@@H](C(C)OC5OC(CO)C(O)C(O)C5O)CC[C@]43O)C2)OC(C)C1OC1OC(CO)C(O)C(O)C1O (stereo not given in full) ?
inactive

Record lookup: outcome of this test for C=C1CC(Cn2cc(C)c(=O)[nH]c2=O)(c2ccc(Cl)cc2)OC1=O (stereo not given) ?
inactive

Record lookup: outcome of this test for `COc1ccc(Cn2nc(OCc3ccccn3)c3cc([N+](=O)[O-])ccc32)cc1` ?
inactive

Record lookup: outcome of this test for `Nc1c(-c2nc3ccccc3s2)c2ccc([N+](=O)[O-])cc2c(=O)n1-c1cccc(C(=O)O)c1` ?
inactive

Record lookup: outcome of this test for `Cc1ccc(NC(=O)CC/C(CC(=O)C(C)(C)C)=N/Nc2nnc(C)n2N)cc1C` ?
inactive

Record lookup: outcome of this test for `CC(=O)c1ccccc1NS(=O)(=O)c1ccc2nc(C)n(NS(=O)(=O)c3ccccc3C(C)=O)c(=O)c2c1` ?
inactive

Record lookup: outcome of this test for `FC(F)(F)c1nc2nc(Cl)c(Cl)nc2n1CCCN1CCOCC1` ?
active

Record lookup: outcome of this test for `COc1ccc(-n2nnc3c(C#N)c(C)c(-c4ccccc4)n3c2=O)cc1` ?
inactive

Record lookup: outcome of this test for `O=C1OC(c2ccccc2)(c2ccccc2)c2ccc3ccc(F)cc3c21` ?
inactive

Record lookup: outcome of this test for O=C1CCCCCCCCCCC1CN1CCOCC1 (stereo not given) ?
inactive

Record lookup: outcome of this test for C[C@]1(CO)CCC[C@@]2(C)C1CC[C@H]1CC3C[C@]12CC[C@]3(C)O (stereo not given in full) ?
inactive

Record lookup: outcome of this test for `CCOC(=O)c1sc2ncnc(N)c2c1C` ?
inactive

Record lookup: outcome of this test for `Cc1cn([C@H]2C[C@](C)(CO)N(C)O2)c(=O)[nH]c1=O` ?
inactive

Record lookup: outcome of this test for CCCCCCCCCCCCCCCCNc1ccn(C2CC(OP(=O)(O)OCC3OC(n4cc(CC)c(=O)[nH]c4=O)CC3O)C(CO)O2)c(=O)n1 (stereo not given) ?
inactive

Record lookup: outcome of this test for `Cc1cc(N(C)C)ccc1/N=N/c1ccc2ncccc2c1` ?
inactive

Record lookup: outcome of this test for `N#Cc1c(Cl)nc2ccccc2c1N=[N+]=[N-]` ?
active

Record lookup: outcome of this test for COc1cccc2c1C(=O)c1c(O)c3c(c(O)c1C2=O)C[C@@](O)(C(C)=O)C[C@@H]3OC1CC([N+]([O-])(Cc2ccccc2)Cc2ccccc2)C(O)C(C)O1 (stereo not given in full) ?
active

Record lookup: outcome of this test for Cc1ccc(C)c(N2C(=O)C(=O)C(c3nc4ccccc4o3)/C(=N\NC(=O)c3ccccc3O)C2=O)c1 (stereo not given) ?
inactive

Record lookup: outcome of this test for CC(C)(C)NC(=O)C12C3C4C1C1C2C3C41I (stereo not given) ?
inactive

Record lookup: outcome of this test for Cc1ccc(S(=O)(=O)NC(=O)NC(CC(=O)O)C(=O)O)cc1 (stereo not given) ?
inactive

Record lookup: outcome of this test for `Cc1ccc(/C=C/C(=O)CCN(C)C)cc1` ?
inactive

Record lookup: outcome of this test for `OCCN1CCN(CC/C=C2/c3ccccc3Sc3ccc(Cl)cc32)CC1` ?
inactive

Record lookup: outcome of this test for C/C(=C\CCC1=CC(=O)OC1)CCC1C2C(=O)CC(C)[C@@]3(C)CC[C@]1(C)[C@@]23C (stereo not given in full) ?
inactive

Record lookup: outcome of this test for C=CCC1(OCc2ccccc2)C(=O)C(=O)OC1C1COC(C)(C)O1 (stereo not given) ?
inactive

Record lookup: outcome of this test for `Cn1c(N)c(Cc2ccc(Cl)cc2)c(=O)[nH]c1=O` ?
inactive

Record lookup: outcome of this test for CCOC(=O)Oc1c(OC)cc(C(=O)NC2CCc3cc(OC)c(OC)c(OC)c3-c3ccc(SC)c(=O)cc32)cc1OC (stereo not given) ?
active

Record lookup: outcome of this test for `O=[N+]([O-])c1ccc(C(c2c[nH]c3ccccc23)c2c[nH]c3ccccc23)cc1` ?
inactive

Record lookup: outcome of this test for C=C1C2Oc3ccccc3C1N(c1ccccc1)O2 (stereo not given) ?
inactive
